Entry source: the nanobody polyreactivity screen of Harvey et al. (2022)

assay: yeast display, Sf9 membrane polyspecificity reagent, FACS + sequencing; frameworks hold sequencing errors
VALUE KIND: polyreactivity (PSR sort gate)

Field: example entries. Status: answers known.
{"BIOSEQUENCE": "QVQLVESGGGLVQAGGSLRLSCAASGFTFDKYGMGWYRQAPGKERELVAAISSGGSTNYADSVKGRFTISRDNAKNTVYLQMNSLKPEDSAVYYCAARYYRYGRFRAYSWWTYGYWGQGTQVTVSS", "VALUE KIND": "polyreactivity (PSR sort gate)", "RESULT": "high polyreactivity"}
{"BIOSEQUENCE": "QVQLVESGGGLVQAGGSLRLSCAASGFTFYSYTMGWYRQAPGKERELVAAISGRSVRTYYADSVKGRFTISRDNAKNTVYLQMNSLKPEDTAVYYCARAYYWRTSWYNYWGQGTQVTVSS", "VALUE KIND": "polyreactivity (PSR sort gate)", "RESULT": "high polyreactivity"}
{"BIOSEQUENCE": "QVQLLESGGGLVQAGVSLRLRCAPSGGTHKYYTMALYRQAPGKERELDATIRWYGDSTSYADSVKGRFTISRDNAKNTVYLQMNSQNPEDTAVYSCNADYAWYQRKSTVEYDYWVQGTQVTVSS", "VALUE KIND": "polyreactivity (PSR sort gate)", "RESULT": "low polyreactivity"}
{"BIOSEQUENCE": "QVQLVESGGGLVQAGGSLRLSCAASGSIFGEYAMGWYRQAPGKERELVAGITSDGSTNYADSVKGRFTISRDNAKNTVYLQMNSLKQEDTAVYYCAAAGYVYHWAPRGSRYYYWGQGTQVTVSS", "VALUE KIND": "polyreactivity (PSR sort gate)", "RESULT": "low polyreactivity"}
{"BIOSEQUENCE": "QVQLVESGGGLVQAGGSLRLICAASGSIFHRYTMGWYRQAPGKERELVAAINYSGSTTHYADSVKGRFTISRDNAKNTVYLQMNSLKPEDTAVYYCAAGSTRWYPTRVRYDYWGQGTQVTVSS", "VALUE KIND": "polyreactivity (PSR sort gate)", "RESULT": "low polyreactivity"}

Could you now look at the following sequence, please?
Specify reported polyreactivity (PSR sort gate) for the sequence shown: QVQLVESGGGLVQAGGSLRLSCAASGFTFKYYVMGWYRQAPGKERELVASISKRGGSTRYADSVKGRFTISLDNAKNTVYLQMNSLKPEDTAVYYCAAEYWYYWEYEYWGQGTQVTVSS high polyreactivity
